Test: in vivo
Design: species or system C57BL/6 mice
Conditions: female, C57BL/6, mouse, ip, 30 mg/kg, Concentration, second series
measurement kind: concentration at 2 h
Please append the unit to your numeric answer.

Input: Item CCCCCCCC(=O)N[C@H]1[C@H](O[C@H]2O[C@H](CO)[C@@H](O)[C@H](O)[C@H]2NC(=O)CCCCCCC)O[C@H](C[C@@H](O)[C@H]2O[C@@H](n3ccc(=O)[nH]c3=O)[C@H](O)[C@@H]2O)[C@H](O)[C@@H]1O [TUN-8,8, Di-N-octanoyl-tunicamycin] has what recorded concentration at 2 h?
Output: 28.9 µM

----------
Assay: Human plasma protein binding assay
Assay type: in vitro ADME
Conditions: read-out: human plasma protein binding, bound (converted)
measurement kind: fraction unbound
Give only the figure.

Input: Item `CCCCCCCC(=O)N[C@H]1[C@H](O[C@H]2O[C@H](CO)[C@@H](O)[C@H](O)[C@H]2NC(=O)CCCCCCC)O[C@H](C[C@@H](O)[C@H]2O[C@@H](n3ccc(=O)[nH]c3=O)[C@H](O)[C@@H]2O)[C@H](O)[C@@H]1O` has what recorded fraction unbound?
Output: 0.018
